assay: Blood clearance in rat at 0.5 mg/kg, iv and 1 mg/kg, po; format: ADME, organism-based
Measure: clearance (mL/min/kg)
Output spec: scalar in mL/min/kg, unitless text.

Prompt: Requested read-out: clearance. Entry: CC(C)(CN1CCN(C2=Cc3ccccc3Cn3cc(F)nc32)CC1)C(=O)O
Completion: 10

###

target: 5-hydroxytryptamine receptor 2C (Homo sapiens, UniProt P28335); assay: Antagonist activity at human 5HT2C receptor expressed in human SHSY5Y cells by FLPR assay
Sequence (P28335 whole entry): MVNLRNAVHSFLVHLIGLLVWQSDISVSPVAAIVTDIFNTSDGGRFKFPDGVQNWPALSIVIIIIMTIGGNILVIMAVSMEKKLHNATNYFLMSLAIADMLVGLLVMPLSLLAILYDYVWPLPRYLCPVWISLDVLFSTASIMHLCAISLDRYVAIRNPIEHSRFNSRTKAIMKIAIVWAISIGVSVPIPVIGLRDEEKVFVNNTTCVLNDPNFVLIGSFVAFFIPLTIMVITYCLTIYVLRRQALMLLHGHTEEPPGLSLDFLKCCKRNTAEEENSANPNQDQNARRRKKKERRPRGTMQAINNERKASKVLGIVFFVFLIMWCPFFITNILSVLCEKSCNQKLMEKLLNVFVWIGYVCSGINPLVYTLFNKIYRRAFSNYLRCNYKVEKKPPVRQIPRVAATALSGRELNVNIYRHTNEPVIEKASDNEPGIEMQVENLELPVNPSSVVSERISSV
Measure: log10 Ki (log10 of the value in µM)
The base-10 logarithm of Ki, taken with Ki in µM, is what appears here.

Example results:
- COc1cnc2n1Cc1ccccc1C=C2N1CCN(CC(C)(C)C(=O)O)CC1: -0.30
- CC1CN(C2=Cc3ccccc3Cn3ccnc32)CC(C)N1CCC(=O)O (configuration not stated): -0.80
- CC(C)(CN1CCN(C2=Cc3ccccc3Cn3cc(F)nc32)CC1)C(=O)O: -0.50

Prompt: Requested read-out: log10 Ki. Entry: C1=C(N2CCNCC2)c2nccn2Cc2ccccc21
Completion: -1.70

Prompt: Requested read-out: log10 Ki. Entry: Cc1cn2c(n1)C(N1CCN(CC(C)(C)C(=O)O)CC1)=Cc1ccccc1C2
Completion: -1.50

Prompt: Requested read-out: log10 Ki. Entry: Cc1nc2n(c1C)Cc1ccccc1C=C2N1CCN(CC(C)(C)C(=O)O)CC1
Completion: -1.20

Prompt: Requested read-out: log10 Ki. Entry: C=C(CN1CCN(C2=Cc3ccccc3Cn3ccnc32)CC1)C(=O)O
Completion: -0.30

Prompt: Requested read-out: log10 Ki. Entry: CC(C)(CN1CCN(C2=Cc3ccccc3Cn3ccnc32)CC1)C(=O)O
Completion: -1.30
